Data origin: the RNAGym collection of RNA variant scans (doi:10.1002/anie.201605470)

B1: Osa-1-4 twister ribozyme (parent)
chain: CCGCCUAACACUGCCAAUGCCGGUCCCAAGCCCGGAUAAAAGUGGAGGGGGCGG

Variants of: B1
method.description: self-cleavage, relative activity (ratio to wild type); higher = more cleavage; co-transcriptional
parameter.measured: self-cleavage

C11A U12A; 0.09
G51U U12G; 0.05
C21U G13U; 0.04
C9A G49U; 0.03
A10C G54U; 0.3
G13A U37A; 0.13
C26G U24C; 0.04
G30A G45U; 0.02
A40G C14G; 0.11
A36U C32G; 0.12
C25U G13C; 0.02
C32G U12A; 0.12
C20G; 0.2
A38G G42U; 0.12
G47C U18G; 0.24
A17G C15U; 0.71
U18A U37G; 0.93
A17U C25G; 0.1
A29C C26G; 0.02
C26U G35U; 0.88
A17G A41U; 0.94
A8U G42U; 0.03
